Tested on: MDA-MB-231 cells
Experiment: MTT cytotoxicity in MDA-MB-231 cells
Format: cell-based
Measurement Context: Homo sapiens, MDA-MB-231, normoxia 96 h, read-out: IC50 MDA-MB-231 Normoxia
Quick reference: IC50 of the listed items.
Dear colleague, please return just the value in µM, with no unit written.

Cc1cc(C)c2oc(=O)cc(OCc3cn(CCCO[C@H]4O[C@@H]5O[C@@]6(C)CC[C@H]7[C@H](C)CC[C@@H]([C@H]4C)[C@@]57OO6)nn3)c2c1 = 24.6

Consider the record given below.
Given the molecule C[C@H]1[C@@H](OCCc2cn(Cc3cc4cc(Br)ccc4oc3=O)nn2)O[C@@H]2O[C@@]3(C)CC[C@H]4[C@H](C)CC[C@@H]1[C@@]24OO3 , what is its reported IC50?
37.7

* * *

Tested on: MDA-MB-231 cells
Experiment: MTT cytotoxicity in MDA-MB-231 cells
Type: cell-based
Measurement Context: Homo sapiens, MDA-MB-231, normoxia 96 h, read-out: IC50 MDA-MB-231 Normoxia
Description: As the anti-neuroinflammatory agents for cancer patients, all newly synthesized compounds were evaluated in vitro for antitumor activity against human breast cancer cell line MDA-MB-231, colorectal cancer cells HT-29 and HCT-116, and lung cancer cell line A549 by using the standard MTT method, respectively. Doxorubicin (DOX) and DHA were used as the reference standard. […] Therefore, the in vitro cytotoxicity was evaluated in two different conditions (hypoxia and normoxia). […]
Quick reference for IC50 among some molecules

Answered cases to consult:
Cc1ccc2c(Cn3cc(CCO[C@H]4O[C@@H]5O[C@@]6(C)CC[C@H]7[C@H](C)CC[C@@H]([C@H]4C)[C@@]57OO6)nn3)cc(=O)oc2c1 = > 100 µM
Cc1ccc2c(OCc3cn(CCCO[C@H]4O[C@@H]5O[C@@]6(C)CC[C@H]7[C@H](C)CC[C@@H]([C@H]4C)[C@@]57OO6)nn3)cc(=O)oc2c1C = 13.3 µM
C[C@H]1[C@@H](OCCn2cc(COc3cc(=O)oc4ccccc34)nn2)O[C@@H]2O[C@@]3(C)CC[C@H]4[C@H](C)CC[C@@H]1[C@@]24OO3 = 100 µM
C[C@H]1[C@@H](OCc2cn(Cc3cc4cc(Cl)ccc4oc3=O)nn2)O[C@@H]2O[C@@]3(C)CC[C@H]4[C@H](C)CC[C@@H]1[C@@]24OO3 = > 100 µM
C[C@H]1[C@@H](OCc2cn(Cc3cc4ccccc4oc3=O)nn2)O[C@@H]2O[C@@]3(C)CC[C@H]4[C@H](C)CC[C@@H]1[C@@]24OO3 = 65 µM

Return reported IC50; argument: Cc1cc(C)c2c(OCc3cn(CCCO[C@H]4O[C@@H]5O[C@@]6(C)CC[C@H]7[C@H](C)CC[C@@H]([C@H]4C)[C@@]57OO6)nn3)cc(=O)oc2c1
1.17 µM

* * *

IC50 values for the molecules below.
System: MDA-MB-231 cells
Experiment: MTT cytotoxicity in MDA-MB-231 cells
Type: cell-based
Measurement Context: Homo sapiens, MDA-MB-231, normoxia 96 h, read-out: IC50 MDA-MB-231 Normoxia
Experimental: As the anti-neuroinflammatory agents for cancer patients, all newly synthesized compounds were evaluated in vitro for antitumor activity against human breast cancer cell line MDA-MB-231, colorectal cancer cells HT-29 and HCT-116, and lung cancer cell line A549 by using the standard MTT method, respectively. Doxorubicin (DOX) and DHA were used as the reference standard. […] Therefore, the in vitro cytotoxicity was evaluated in two different conditions (hypoxia and normoxia). […]

Cc1cc(C)c2c(Cn3cc(CO[C@H]4O[C@@H]5O[C@@]6(C)CC[C@H]7[C@H](C)CC[C@@H]([C@H]4C)[C@@]57OO6)nn3)cc(=O)oc2c1 [3g] = > 100 µM

IC50 of C[C@H]1[C@@H](OCc2cn(Cc3cc(=O)oc4cc(O)ccc34)nn2)O[C@@H]2O[C@@]3(C)CC[C@H]4[C@H](C)CC[C@@H]1[C@@]24OO3 [3f] on MDA-MB-231 cells?
> 100 µM

Form field - read-out: IC50; system: MDA-MB-231 cells; submitted item: Cc1cccc2c(OCc3cn(CCO[C@H]4O[C@@H]5O[C@@]6(C)CC[C@H]7[C@H](C)CC[C@@H]([C@H]4C)[C@@]57OO6)nn3)cc(=O)oc12 [5o]
37.4 µM

// map Cc1cccc2c(OCc3cn(CCCO[C@H]4O[C@@H]5O[C@@]6(C)CC[C@H]7[C@H](C)CC[C@@H]([C@H]4C)[C@@]57OO6)nn3)cc(=O)oc12 [6o] to recorded IC50 (system: MDA-MB-231 cells)
47.6 µM

Param readout= IC50; system= MDA-MB-231 cells; entry= C[C@H]1[C@@H](OCCc2cn(Cc3cc(=O)oc4cc(O)ccc34)nn2)O[C@@H]2O[C@@]3(C)CC[C@H]4[C@H](C)CC[C@@H]1[C@@]24OO3 [4f] ; returns value.
> 100 µM

Request body: readout IC50, system MDA-MB-231 cells, query C[C@H]1[C@@H](OCCc2cn(Cc3cc4ccccc4oc3=O)nn2)O[C@@H]2O[C@@]3(C)CC[C@H]4[C@H](C)CC[C@@H]1[C@@]24OO3 [2a] . Return the value.
> 100 µM
